Source listed as the supplement of paper PMC11208160.

Each entry below carries its recorded recombinant UMI read abundance (log10).
assay: recombinant UMI read abundance after kanamycin selection (control-corrected) (log10(CPM+1)); higher = more efficient recombination; extreme values may be limits of the assay; sequences stand for … in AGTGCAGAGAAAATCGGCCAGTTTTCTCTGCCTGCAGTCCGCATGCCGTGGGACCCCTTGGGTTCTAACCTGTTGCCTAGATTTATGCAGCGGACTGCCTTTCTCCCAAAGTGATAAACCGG…AGGTTGGTTTCACT; site = the 11-nt donor;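 note: IS621 bridge recombinase in Escherichia coli cells against a fixed T5 target plasmid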
MEASUREMENT_TYPE: recombinant UMI read abundance (log10)

>  <RESIDUE_SEQUENCE>
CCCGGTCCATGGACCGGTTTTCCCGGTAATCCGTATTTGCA (site CGCGGTCCTTG)

>  <OBS_VALUE>
0

$$$$
>  <RESIDUE_SEQUENCE>
GTCCAAGCATGGACCGGTTTTCCCGGTAATCCGTATTTGAG (site GTCCAAGCTCT)

>  <OBS_VALUE>
0.618

$$$$
>  <RESIDUE_SEQUENCE>
ATGACGACATGGACCGGTTTTCCCGGTAATCCGTATTTGCA (site ATGACGACTTG)

>  <OBS_VALUE>
1.81

$$$$
>  <RESIDUE_SEQUENCE>
TTAGCCGCATGGACCGGTTTTCCCGGTAATCCGTATTTGAC (site TTAGCCGCTGT)

>  <OBS_VALUE>
2.72

$$$$
